- STUDY_SYSTEM: ERα (Homo sapiens)
- Sequence (P03372 whole entry): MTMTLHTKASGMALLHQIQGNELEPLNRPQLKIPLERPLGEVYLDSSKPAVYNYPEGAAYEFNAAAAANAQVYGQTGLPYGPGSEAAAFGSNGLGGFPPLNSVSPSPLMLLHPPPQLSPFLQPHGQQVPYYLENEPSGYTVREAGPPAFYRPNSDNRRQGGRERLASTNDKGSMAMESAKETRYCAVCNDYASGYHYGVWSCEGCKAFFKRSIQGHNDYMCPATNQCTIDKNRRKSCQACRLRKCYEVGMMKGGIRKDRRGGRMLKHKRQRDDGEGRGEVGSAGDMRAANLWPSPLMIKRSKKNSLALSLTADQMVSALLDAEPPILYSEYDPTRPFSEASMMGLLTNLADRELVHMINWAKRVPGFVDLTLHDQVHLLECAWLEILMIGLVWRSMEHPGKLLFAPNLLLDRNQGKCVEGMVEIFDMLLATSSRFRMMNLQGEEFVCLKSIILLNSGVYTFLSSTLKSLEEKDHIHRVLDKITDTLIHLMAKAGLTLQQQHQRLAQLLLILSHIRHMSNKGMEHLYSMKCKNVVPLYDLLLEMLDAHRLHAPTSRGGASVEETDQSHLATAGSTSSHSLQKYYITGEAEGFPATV
- EXPERIMENT: Degradation of ERα in T-47D cells (immunoblotting, 4 h)
- Type: cell-based
- Set-up: host or cells: T-47D
- CONDITION_DESCRIPTION: 1nM compound
QUANTITY: Degradation rate (%) of ERα in T-47D cells
Please give a number only; it is taken to be in %.

Bench note: what Degradation rate (%) of ERα in T-47D cells did O=C1CCC(N2Cc3c(ccc4c3OCC43CCN(C4CCN(C(=O)C5CC6(CCN(c7ccc([C@@H]8c9ccc(O)cc9CC[C@@H]8c8ccccc8)cc7)CC6)C5)CC4)CC3)C2=O)C(=O)N1 (stereo partly drawn) show?
68

GET /values?readout=Degradation rate (%) of ERα in T-47D cells&item= O=C1CCC(N2Cc3cc4c(cc3C2=O)CCC2(CN(C3CCN(C5CCN(c6ccc([C@@H]7c8ccc(O)cc8CC[C@@H]7c7ccccc7)cc6)CC5)CC3)C2)O4)C(=O)N1 (stereo partly drawn)
37

Quick one: Degradation rate (%) of ERα in T-47D cells for C[C@@H]1Cc2c([nH]c3ccccc23)[C@@H](c2c(F)cc(N3CCC4(CC3)CC(N3CC[C@@H](N5CCC6(CC5)COc5c6ccc6c5CN(C5CCC(=O)NC5=O)C6=O)[C@@H](F)C3)C4)cc2F)N1CC(F)F (stereo partly drawn) ?
24

* * *

Provide the reported Degradation rate (%) of ERα in MCF-7 cells of each item.
- STUDY_SYSTEM: UniProtKB P03372
- EXPERIMENT: Degradation of ERα in MCF-7 cells (immunoblotting, 4 h)
- Assay type: cell-based
- CONDITION_DESCRIPTION: 1nM compound
Record the value in %, omitting the unit from your answer.

Look up Degradation rate (%) of ERα in MCF-7 cells for this compound: O=C1CCC(N2Cc3c(ccc4c3OCC43CCN(CCN4CCN(c5ccc([C@@H]6c7ccc(O)cc7CC[C@@H]6c6ccccc6)cc5)CC4)CC3)C2=O)C(=O)N1 (some centres unmarked)
-18

Which Degradation rate (%) of ERα in MCF-7 cells value is on record for O=C1CCC(N2Cc3c(ccc4c3OCC43CCN(C(=O)CN(CC4CC4)CC4CCN(c5ccc([C@@H]6c7ccc(O)cc7CC[C@@H]6c6ccccc6)cc5)CC4)CC3)C2=O)C(=O)N1 (some centres unmarked) ?
17

Tell me the measured Degradation rate (%) of ERα in MCF-7 cells of O=C1CCC(N2Cc3c(ccc4c3OCC43CCN(CC(=O)N4CC5(CCC(C#Cc6ccc([C@@H]7c8ccc(O)cc8CC[C@@H]7c7ccccc7)cc6)CC5)C4)CC3)C2=O)C(=O)N1 (some centres unmarked) , please.
19

May I ask what Degradation rate (%) of ERα in MCF-7 cells has been recorded for O=C1CCC(N2Cc3cc4c(cc3C2=O)CCC2(CN(CC3CCN(C(=O)C5CCN(c6ccc([C@@H]7c8ccc(O)cc8CC[C@@H]7c7ccccc7)cc6)CC5)CC3)C2)O4)C(=O)N1 (some centres unmarked) ?
14

# get_value(readout='Degradation rate (%) of ERα in MCF-7 cells', item= CC1(C)CC(N2CCC3(CC2)COc2c3ccc3c2CN(C2CCC(=O)NC2=O)C3=O)CCN1C(=O)C1CCN(c2ccc([C@@H]3c4ccc(O)cc4CC[C@@H]3c3ccccc3)cc2)CC1 (some centres unmarked) )
66
